- TEST_TARGET: T1, A647-SsoSSB A114C (Sulfolobus solfataricus, UniProt Q97W73 1-148, A114C)
- T1 sequence: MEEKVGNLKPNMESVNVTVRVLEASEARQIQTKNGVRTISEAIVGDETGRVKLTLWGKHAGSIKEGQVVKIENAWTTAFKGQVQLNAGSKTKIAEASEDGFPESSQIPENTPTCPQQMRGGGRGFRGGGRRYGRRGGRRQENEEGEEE
- ASSAY_PROCEDURE: single-molecule FRET/PIFE/quenching kinetics; second monomer; kon 0.16 nM-1 s-1, koff 0.31 s-1; 10 mM KCl; 50 mM Tris-HCl pH 7.6, 10 mM KCl, 5% glycerol, 0.1 mg/ml BSA, 5-50 nM DNA, 20 C (PIFE also 65 C)
- MEASUREMENT_CONDITIONS: protein: recombinant; chain copies: 2; label: 5' biotin, 3' Cy3; single strand
ENDPOINT_LABEL: Kd

Input line: Requested field: Kd. Item: CCCCCCCCCCCC (ssDNA) [BidC12Cy3]
Output line: ~2 nM
